assay: Metabolic stability in rat liver microsome assessed as parent compound remaining measured immediately in presence of NADPH by LC-MS/MS analysis; format: ADME; settings: liver microsomes, read-out: Stability
// reported remaining at 0 min per item
Please respond with the number in % and leave the unit unwritten.

O=C(NCc1cccs1)[C@@H]1CN(C(=O)c2cccnc2)CCN1c1ccc(Cl)c(Cl)c1 100

Consider the compound shown here: O=C(c1cccnc1)N1CCN(c2ccc(Cl)c(Cl)c2)[C@H](c2cn(-c3ccc(CO)cc3)nn2)C1 What is its recorded remaining at 0 min? 100

====

test: Metabolic stability in rat liver microsome assessed as parent compound remaining measured at 15 mins in presence of NADPH by LC-MS/MS analysis; assay type: ADME; settings: liver microsomes, read-out: Stability
// reported remaining at 0.25 h per item
Please respond with the number in % and leave the unit unwritten.

O=C(c1cccnc1)N1CCN(c2ccc(Cl)c(Cl)c2)[C@H](c2cn(-c3ccc(CO)cc3)nn2)C1 36.5

For the next question, use this compound.
Consider the compound shown here: O=C(NCc1cccs1)[C@@H]1CN(C(=O)c2cccnc2)CCN1c1ccc(Cl)c(Cl)c1 What is its recorded remaining at 0.25 h? 1.56

====

// reported remaining at 1 h per item
assay: Metabolic stability in rat liver microsome assessed as parent compound remaining measured at 60 mins in presence of NADPH by LC-MS/MS analysis; assay type: ADME; conditions: liver microsomes, read-out: Stability
Please respond with the number in % and leave the unit unwritten.

O=C(NCc1cccs1)[C@@H]1CN(C(=O)c2cccnc2)CCN1c1ccc(Cl)c(Cl)c1 0

For the next question, use this compound.
Consider the compound shown here: O=C(c1cccnc1)N1CCN(c2ccc(Cl)c(Cl)c2)[C@H](c2cn(-c3ccc(CO)cc3)nn2)C1 What is its recorded remaining at 1 h? 5.1

====

assay: Metabolic stability in rat liver microsome assessed as intrinsic clearance measured up to 60 mins in presence of NADPH by LC-MS/MS analysis; type: ADME; conditions: liver microsomes
// reported CLint scaled per item
Kindly write the number and append the unit.

Worked cases, answers included:
O=C(c1cccnc1)N1CCN(c2ccc(Cl)c(Cl)c2)[C@H](c2cn(-c3ccc(CO)cc3)nn2)C1 242 mL/min/kg
O=C(O)Cc1ccccc1Nc1c(Cl)cccc1Cl 150 mL/min/kg

For the next question, use this molecule.
Consider the molecule shown here: O=C(NCc1cccs1)[C@@H]1CN(C(=O)c2cccnc2)CCN1c1ccc(Cl)c(Cl)c1 What is its recorded CLint scaled? 994 mL/min/kg

====

// reported remaining at 5 min per item
test: Metabolic stability in rat liver microsome assessed as parent compound remaining measured at 5 mins in presence of NADPH by LC-MS/MS analysis; assay type: ADME; details: liver microsomes, read-out: Stability
Please respond with the number in % and leave the unit unwritten.

O=C(c1cccnc1)N1CCN(c2ccc(Cl)c(Cl)c2)[C@H](c2cn(-c3ccc(CO)cc3)nn2)C1 70.7

Consider the compound shown here: O=C(NCc1cccs1)[C@@H]1CN(C(=O)c2cccnc2)CCN1c1ccc(Cl)c(Cl)c1 What is its recorded remaining at 5 min? 22.7

====

assay: Metabolic stability in rat liver microsome assessed as parent compound remaining measured at 30 mins in presence of NADPH by LC-MS/MS analysis; format: ADME; details: liver microsomes, read-out: Stability
measured.attribute: remaining at 0.5 h (%)
Please respond with the number in % and leave the unit unwritten.

O=C(c1cccnc1)N1CCN(c2ccc(Cl)c(Cl)c2)[C@H](c2cn(-c3ccc(CO)cc3)nn2)C1 13.3

For the next question, use this molecule.
Consider the molecule shown here: O=C(NCc1cccs1)[C@@H]1CN(C(=O)c2cccnc2)CCN1c1ccc(Cl)c(Cl)c1 What is its recorded remaining at 0.5 h? 0

====

experiment: Cytotoxicity against African green monkey Vero E6 cells assessed as cell viability measured for 26 hrs by MTS assay; type: toxicity, cell-based, Vero C1008; conditions: chlorocebus sabaeus
measured.attribute: CC50 at 26 h

Consider the molecule shown here: O=C(c1cccnc1)N1CCN(c2ccc(Cl)c(Cl)c2)[C@H](c2cn(-c3ccc4c(c3)OCO4)nn2)C1 What is its recorded CC50 at 26 h? > 100 µM

====

system: Severe acute respiratory syndrome coronavirus 2; test: Inhibition of SARS-CoV-2 Main protease using MCA-AVLQSGFR-Lys(Dnp)-Lys-NH2 as substrate at 5 uM preincubated for 10 mins followed by substrate addition and measured after 10 mins by FRET assay relative to control; details: time 20.0 min
Active and inactive are the calls of the source. How the calls were made is not given here.
measured.attribute: inhibition

NS(=O)(=O)c1ccc(Cn2cc([C@@H]3CN(C(=O)c4cccnc4)CCN3c3ccc(Cl)c(Cl)c3)nn2)cc1 Active
NC(=O)c1ccc(Cn2cc([C@@H]3CN(C(=O)c4cccnc4)CCN3c3ccc(Cl)c(Cl)c3)nn2)cc1 Active
O=C(O)c1ccc(-n2cc([C@@H]3CN(C(=O)c4cccnc4)CCN3c3ccc(Cl)c(Cl)c3)nn2)c(Cl)c1 Active

====

test system: Severe acute respiratory syndrome coronavirus 2; assay: Inhibition of SARS-CoV-2 Main protease using MCA-AVLQSGFR-Lys(Dnp)-Lys-NH2 as substrate at 5 uM preincubated for 10 mins followed by substrate addition and measured after 10 mins by FRET assay relative to control; conditions: time 20.0 min
Calls of active or inactive are those of the source. How the calls were made is not given here.
Returns: one label drawn from 1 (yes) (active), 0 (no) (inactive)

O=C(c1cccnc1)N1CCN(c2ccc(Cl)c(Cl)c2)[C@H](c2cn(Cc3ccc(Cl)cc3)nn2)C1 1 (yes)
O=C(c1cccnc1)N1CCN(c2ccc(Cl)c(Cl)c2)[C@H](c2cn(Cc3cccc4ccccc34)nn2)C1 1 (yes)
O=C(c1cccnc1)N1CCN(c2ccc(Cl)c(Cl)c2)[C@H](c2cn(Cc3ccncc3)nn2)C1 1 (yes)
COc1ccccc1Cn1cc([C@@H]2CN(C(=O)c3cccnc3)CCN2c2ccc(Cl)c(Cl)c2)nn1 1 (yes)
O=C(Cn1cc([C@@H]2CN(C(=O)c3cccnc3)CCN2c2ccc(Cl)c(Cl)c2)nn1)NC1CC1 1 (yes)
O=C(c1cccnc1)N1CCN(c2ccc(Cl)c(Cl)c2)[C@H](c2cn(-c3ccncc3)nn2)C1 1 (yes)
O=C(Cn1cc([C@@H]2CN(C(=O)c3cccnc3)CCN2c2ccc(Cl)c(Cl)c2)nn1)N1CCCC1 1 (yes)
CC(C)(C)c1ccc(-n2cc([C@@H]3CN(C(=O)c4cccnc4)CCN3c3ccc(Cl)c(Cl)c3)nn2)cc1 1 (yes)

Which result was noted for this compound in the test: O=C(c1cccnc1)N1CCN(c2ccc(Cl)c(Cl)c2)[C@H](c2cn(-c3cccnc3)nn2)C1 1 (yes)

Which result was noted for this compound in the test: O=C(c1cccnc1)N1CCN(c2ccc(Cl)c(Cl)c2)[C@H](c2cn(Cc3ccc([N+](=O)[O-])cc3)nn2)C1 1 (yes)

Which result was noted for this compound in the test: O=C(c1cccnc1)N1CCN(c2ccc(Cl)c(Cl)c2)[C@H](c2cn(CCc3ccsc3)nn2)C1 1 (yes)

====

tested on: Severe acute respiratory syndrome coronavirus 2; experiment: Inhibition of SARS-CoV-2 Main protease using MCA-AVLQSGFR-Lys(Dnp)-Lys-NH2 as substrate at 5 uM preincubated for 10 mins followed by substrate addition and measured after 10 mins by FRET assay relative to control; conditions: time 20.0 min
Activity calls are given as the source filed them. The rule behind the calls is not given here.
measured.attribute: inhibition

Worked cases, answers included:
O=C(Cn1cc([C@@H]2CN(C(=O)c3cccnc3)CCN2c2ccc(Cl)c(Cl)c2)nn1)Nc1ccc(Br)cc1 inactive
Cc1ccccc1Cn1cc([C@@H]2CN(C(=O)c3cccnc3)CCN2c2ccc(Cl)c(Cl)c2)nn1 Active
O=C(c1cccnc1)N1CCN(c2ccc(Cl)c(Cl)c2)[C@H](c2cn(Cc3ccccc3[N+](=O)[O-])nn2)C1 Active
Cc1cccc(Cn2cc([C@@H]3CN(C(=O)c4cccnc4)CCN3c3ccc(Cl)c(Cl)c3)nn2)c1 Active
O=C(c1cccnc1)N1CCN(c2ccc(Cl)c(Cl)c2)[C@H](c2cn(Cc3cccc(F)c3)nn2)C1 Active
NC(=O)c1ccc(-n2cc([C@@H]3CN(C(=O)c4cccnc4)CCN3c3ccc(Cl)c(Cl)c3)nn2)cc1 Active
O=C(Cn1cc([C@@H]2CN(C(=O)c3cccnc3)CCN2c2ccc(Cl)c(Cl)c2)nn1)NC1CCC1 Active
O=C(O)c1ccc(-n2cc([C@@H]3CN(C(=O)c4cccnc4)CCN3c3ccc(Cl)c(Cl)c3)nn2)cc1 Active

Consider the molecule shown here: O=C(c1cccnc1)N1CCN(c2ccc(Cl)c(Cl)c2)[C@H](c2cn(Cc3ccc(B(O)O)cc3)nn2)C1 What is its recorded inhibition? inactive

====

tested on: Severe acute respiratory syndrome coronavirus 2; test: Inhibition of SARS-CoV-2 Main protease using MCA-AVLQSGFR-Lys(Dnp)-Lys-NH2 as substrate at 5 uM preincubated for 10 mins followed by substrate addition and measured after 10 mins by FRET assay relative to control; conditions: time 20.0 min
Active and inactive are the calls of the source. The rule behind the calls is not given here.
Returns: one label drawn from active, inactive

O=C(c1cccnc1)N1CCN(c2ccc(Cl)c(Cl)c2)[C@H](c2cn(CCN3C(=O)c4ccccc4C3=O)nn2)C1 active
O=C(c1cccnc1)N1CCN(c2ccc(Cl)c(Cl)c2)[C@H](c2cn(Cc3ccc(C(F)(F)F)cc3)nn2)C1 inactive

Which result was noted for this compound in the test: O=C(Cn1cc([C@@H]2CN(C(=O)c3cccnc3)CCN2c2ccc(Cl)c(Cl)c2)nn1)Nc1ccc(C(F)(F)F)cc1 inactive

Which result was noted for this compound in the test: CCOC(=O)Cn1cc([C@@H]2CN(C(=O)c3cccnc3)CCN2c2ccc(Cl)c(Cl)c2)nn1 active

Which result was noted for this compound in the test: O=C(Cn1cc([C@@H]2CN(C(=O)c3cccnc3)CCN2c2ccc(Cl)c(Cl)c2)nn1)Nc1ccc(F)cc1 active

Which result was noted for this compound in the test: O=C(c1cccnc1)N1CCN(c2ccc(Cl)c(Cl)c2)[C@H](c2cn(S(=O)(=O)n3ccnc3)nn2)C1 active
